# targetSystem: Tubulin (Bos taurus) (UniProt Q6B856+Q862L2+Q862F3)
# details: at 10 µM
# Description: Inhibition of tubulin polymerization in bovine brain at 10 uM
metric: inhibition (%)
I only need the number, in %, no unit after it.

Check out these entries, answers already filled in.
smilesStructure: COc1cc(OC)cc(Oc2ncccc2-c2n[nH]c(Nc3ccc(C#N)cc3)n2)c1
targetSystem: Tubulin (Bos taurus) (UniProt Q6B856+Q862L2+Q862F3)
unitString: %
inhibition: 97
--
smilesStructure: COc1cc(Nc2ncccc2-c2n[nH]c(Nc3ccc4c(c3)OCO4)n2)cc(OC)c1
targetSystem: Tubulin (Bos taurus) (UniProt Q6B856+Q862L2+Q862F3)
unitString: %
inhibition: 87
--
smilesStructure: Fc1ccc(CNc2ncccc2-c2n[nH]c(Nc3ccc4c(c3)OCCO4)n2)cc1F
targetSystem: Tubulin (Bos taurus) (UniProt Q6B856+Q862L2+Q862F3)
unitString: %
inhibition: 84
--
smilesStructure: COc1cccc(CNc2n[nH]c(-c3cccnc3Nc3cc(OC)cc(OC)c3)n2)c1
targetSystem: Tubulin (Bos taurus) (UniProt Q6B856+Q862L2+Q862F3)
unitString: %
inhibition: 100
--
smilesStructure: COc1cc(Nc2n[nH]c(-c3cccnc3Oc3cc(OC)cc(OC)c3)n2)cc(OC)c1
targetSystem: Tubulin (Bos taurus) (UniProt Q6B856+Q862L2+Q862F3)
unitString: %
inhibition: 99
--
smilesStructure: O=C1CCCN1CCCNc1ncccc1-c1n[nH]c(Nc2ccc3c(c2)OCCO3)n1
targetSystem: Tubulin (Bos taurus) (UniProt Q6B856+Q862L2+Q862F3);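 also: Read-out is polymerization of tubulin isolated from bovine brain, given as percent inhibition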
unitString: %
inhibition: 21

Please examine the following record next.
What does the record list as inhibition for COc1cc(Nc2ncncc2-c2n[nH]c(Nc3ccc4c(c3)OCCO4)n2)cc(OC)c1 ?
100
